biological target: other receptor sites (Homo sapiens, UniProt Q13639); assay: Functional activity at other receptor sites relative to psilocin (Table 5), further receptors; conditions: read-out: 5-HT4 EC50, 5-HT4 receptor, compared with psilocin
Sequence (Q13639 whole entry): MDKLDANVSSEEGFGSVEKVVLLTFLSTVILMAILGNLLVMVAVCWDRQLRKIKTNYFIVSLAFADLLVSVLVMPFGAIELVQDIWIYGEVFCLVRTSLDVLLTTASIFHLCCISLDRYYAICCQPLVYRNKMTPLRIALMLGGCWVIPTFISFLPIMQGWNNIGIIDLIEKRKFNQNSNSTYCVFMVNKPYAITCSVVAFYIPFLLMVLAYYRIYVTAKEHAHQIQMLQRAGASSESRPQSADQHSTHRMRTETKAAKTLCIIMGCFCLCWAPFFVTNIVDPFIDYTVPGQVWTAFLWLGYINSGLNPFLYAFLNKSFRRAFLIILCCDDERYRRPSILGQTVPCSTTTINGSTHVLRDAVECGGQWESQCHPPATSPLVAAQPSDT
experimentalEndpoint: pEC50
Worth noting: pEC50 values are minus log10 of concentrations stated in mol/L.

- molecule: "CN(C)CCc1c[nH]c2cccc(O)c12 [drawing 39]"
  pEC50: 6.25

### Prompt Look up pEC50 for this molecule: Cc1ccc(O)c2c(CCN(C)C)c[nH]c12 [drawing 38]
### Response 6.59

====

molecular target: 5-HT2A receptor (Homo sapiens, UniProt P28223); construct: expressed in transfected cells; host or cells: HEK293T; assay: Serotonin receptor 5-HT2 functional assay (Gq dissociation BRET or Gq-dependent calcium flux), 5-HT2A; assay type: cell-based; conditions: Table 4; efficacy relative to 4-hydroxytryptamine; at least three replicate trials
Sequence (P28223 whole entry): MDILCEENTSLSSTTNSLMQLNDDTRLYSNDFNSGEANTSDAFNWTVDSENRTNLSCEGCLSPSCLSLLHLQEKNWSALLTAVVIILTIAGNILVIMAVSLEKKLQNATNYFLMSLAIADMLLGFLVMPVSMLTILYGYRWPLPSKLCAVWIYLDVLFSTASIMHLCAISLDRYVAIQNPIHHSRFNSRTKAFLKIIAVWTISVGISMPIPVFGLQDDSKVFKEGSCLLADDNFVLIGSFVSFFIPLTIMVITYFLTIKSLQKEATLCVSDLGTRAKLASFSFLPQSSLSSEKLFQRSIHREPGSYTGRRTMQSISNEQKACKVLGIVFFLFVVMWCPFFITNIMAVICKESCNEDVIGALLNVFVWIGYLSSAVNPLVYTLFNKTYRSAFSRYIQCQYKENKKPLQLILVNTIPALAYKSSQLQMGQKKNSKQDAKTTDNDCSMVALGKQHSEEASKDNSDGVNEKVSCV
Threshold 80%: 5-HT2A BRET Eff % strictly smaller gives Met, otherwise Not met.

Observe how each entry below is paired with its result.
- compound: "Cc1ccc(OCc2ccc(C(F)(F)F)cc2)c2c(CCN(C)C)c[nH]c12 [Compound 39]"
  classification: "Not met"
- compound: "CC(C)c1ccc(O)c2c(CCN(C)C)c[nH]c12 [Compound 10]"
  classification: "Met"
- compound: "Cc1ccc(OP(=O)(O)O)c2c(CCN(C)C)c[nH]c12 [Compound 24]"
  classification: "Met"
- compound: "CCN(C)CCc1c[nH]c2c(C)ccc(O)c12 [Compound 14]"
  classification: "Met"

### Prompt Lab note: confirm whether the reported 5-HT2A BRET Eff % for this compound is below 80%, equality not counting. compound: CN(C)CCc1c[nH]c2c(C#N)ccc(O)c12 [Compound 64]
### Response Met
